# target-under-test: PEG-3 (UniProt Q6IN02)
# Sequence (Q6IN02 whole entry, looked up): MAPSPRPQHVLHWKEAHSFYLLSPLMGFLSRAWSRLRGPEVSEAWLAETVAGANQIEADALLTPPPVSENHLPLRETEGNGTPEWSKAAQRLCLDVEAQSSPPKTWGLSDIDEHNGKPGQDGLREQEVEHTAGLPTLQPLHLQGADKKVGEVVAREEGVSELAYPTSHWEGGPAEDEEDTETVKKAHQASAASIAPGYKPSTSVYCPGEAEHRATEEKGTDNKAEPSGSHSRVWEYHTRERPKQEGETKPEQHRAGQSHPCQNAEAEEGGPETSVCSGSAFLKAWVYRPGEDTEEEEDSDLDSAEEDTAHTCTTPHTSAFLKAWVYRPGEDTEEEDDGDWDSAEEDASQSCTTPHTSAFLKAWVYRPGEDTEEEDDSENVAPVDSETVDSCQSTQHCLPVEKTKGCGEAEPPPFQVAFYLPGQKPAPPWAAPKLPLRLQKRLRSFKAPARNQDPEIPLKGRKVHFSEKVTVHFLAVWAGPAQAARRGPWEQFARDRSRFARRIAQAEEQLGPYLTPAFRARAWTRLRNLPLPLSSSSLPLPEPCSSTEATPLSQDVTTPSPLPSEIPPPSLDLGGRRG
# assay-method-text: Peg3 promoter luciferase inhibitors, potency, dose response, cell-based, HeLa, CREF/GAPDH counter-screen panel (AID 624167)
# measurement-parameters: HeLa PEG-Prom luciferase reporter, overnight, CREF/GAPDH counter-screens, mean of runs
The source made the active and inactive calls.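 Rule for the calls: active = mean IC50 for reducing PEG3 promoter reporter signal at or below a set limit, with IC50 above the limit in both counter screens; inactive = the rest, including counter screen hits.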
Answer with one of the outcomes given here: active, inactive

Reference set (5 entries):
Ask | Called result for `COCc1ccc(CN2CCC(C(=O)Nc3cccc(-c4cccc(Cl)c4)c3)CC2)o1`
Reply | active

Ask | Called result for `O=S(=O)(/N=C(/Sc1ccccc1)c1ccccc1)c1ccccc1`
Reply | inactive

Ask | Called result for `Cn1nnnc1Sc1ncnc2scc(-c3ccc4c(c3)OCO4)c12`
Reply | inactive

Ask | Called result for `COC(CNC(=O)c1ccc2c3c(onc13)-c1ccccc1C2=O)OC`
Reply | active

Ask | Called result for `CCCN1CCc2c(sc(NC(=O)c3ccc(S(=O)(=O)N4CCN(C(=O)OCC)CC4)cc3)c2C(N)=O)C1`
Reply | inactive

More entries:
Ask | Called result for `CCc1ccn2cc(-c3ccc4c(c3)OCO4)nc2c1`
Reply | active

Ask | Called result for `c1ccc(-c2cc(-c3nc4ccccc4[nH]3)c3ccccc3n2)cc1`
Reply | inactive

Ask | Called result for `O=C(CN1C(=O)c2ccccc2S1(=O)=O)c1ccc2c(c1)OCCCO2`
Reply | active

Ask | Called result for `CC1(C)C(=O)C=CC(=O)C(C)(C)C(=O)C=CC(=O)C(C)(C)C2=CC=C(O2)C(C)(C)C(=O)C=CC1=O`
Reply | active

Ask | Called result for `O=C1N[C@@H](c2ccccc2)COC(=O)[C@@H](Cc2ccc(F)cc2)CC/C=C/C[C@H]1CC(=O)N(CCO)Cc1ccccc1`
Reply | inactive

Ask | Called result for `O=c1cc(-c2ccc(O)cc2)oc2ccc3ccccc3c12`
Reply | active

Ask | Called result for O=C1NC(Cc2ccc(O)cc2)c2nc3ccc(F)cc3c(=O)n2-c2cc3ccccc3cc21 (configuration not stated)
Reply | inactive

Ask | Called result for `O=C(CCl)N1c2ccccc2Sc2ccc3ccccc3c21`
Reply | active

Ask | Called result for N/C(=N\OC(=O)c1ccccc1)C(Cc1ccccc1)C(=O)NOC(=O)c1ccccc1 (configuration not stated)
Reply | active

Ask | Called result for `CN(C)CCc1cc2c(c3c1ccc1ccccc13)OCO2`
Reply | active

Ask | Called result for `CN(C)CCCN1c2ccccc2Sc2ccc3ccccc3c21`
Reply | active
